This listing pairs compounds with measured pest or weed control at 100 g/ha.
Test system: larvae of the mustard beetle (Phaedon cochleariae)
experiment.notes: Phaedon test (PHAECO spray treatment)
conditions: Phaedon cochleariae, in Brassica rapa, foliar, read-out: effect in % (beetle larvae killed)

Here is how some compounds turned out for pest or weed control at 100 g/ha.
compound	reported.result
Cc1cc(Br)cc(C(=O)NCC#N)c1NC(=O)c1cc(Cn2nnc(C(F)(F)F)n2)nn1-c1ncccc1C(F)(F)F [Example 248]	≥ 80%
Cc1cc(C#N)cc(C(=O)NC2CC2)c1NC(=O)c1cc(Cn2nnnc2C(F)F)nn1-c1ncccc1Cl [Example 468]	≥ 80%
CNC(=O)c1cc(Cl)cc(C)c1NC(=O)c1cc(Cn2nnnc2C(F)(F)F)nn1-c1ncccc1Cl [Example 161]	≥ 80%
Cc1cc(F)cc(C(=O)NC(C)(C)C)c1NC(=O)c1cc(Cn2nnc(C(F)(F)F)n2)nn1-c1ncccc1Cl [Example 115]	≥ 80%
Cc1cc(F)cc(C(=O)NC2CC2)c1NC(=O)c1cc(Cn2nnnc2C(F)(F)F)nn1-c1ncccc1Cl [Example 169]	≥ 80%
Cc1cc(C#N)cc(C(=O)NC2CCC2)c1NC(=O)c1cc(Cn2nnc(C(F)F)n2)nn1-c1ncccc1Cl [Example 270]	≥ 80%

Data request: Field request: pest or weed control at 100 g/ha | item: NC(=O)c1cc(Cl)cc(Cl)c1NC(=O)c1cc(Cn2nnc(C(F)F)n2)nn1-c1ncccc1Cl [Example 305]
Data returned: ≥ 80%

---

experiment.notes: log P determination by HPLC (EEC Directive 79/831 Annex V.A8)
Format: physicochemical
conditions: reversed-phase HPLC, Zorbax Eclipse C18 column, by HPLC according to EEC Directive 79/831 Annex V.A8; read-out: log P
This listing pairs compounds with measured chromatographic logP.
Give only the figure.

Here is how some compounds turned out for chromatographic logP.
compound	chromatographic logP
Cc1cc(C#N)cc(C(=O)NC2CC2)c1NC(=O)c1cc(Cn2nnc(C(F)(F)F)n2)nn1-c1ncccc1C(F)(F)F	3.07
Cc1cc(I)cc(C(=O)NC2CC2)c1NC(=O)c1cc(Cn2nnc(C(F)(F)F)n2)nn1-c1ncccc1Br	3.45
CCNC(=O)c1cc(Cl)cc(C)c1NC(=O)c1cc(Cn2nnc(C(F)(F)F)n2)nn1-c1ncccc1Br	3.23

Data request: Field request: chromatographic logP | item: Cc1cc(I)cc(C(N)=O)c1NC(=O)c1cc(Cn2nnc(C(F)(F)F)n2)nn1-c1ncccc1Br
Data returned: 2.95

Data request: Field request: chromatographic logP | item: Cc1cc(Cl)cc(C(=O)NC(C)(C)C)c1NC(=O)c1cc(Cn2nnc(C(F)(F)F)n2)nn1-c1ncccc1C(F)(F)F
Data returned: 4

---

System: caterpillars of the armyworm (Spodoptera frugiperda)
experiment.notes: Spodoptera frugiperda test (SPODFR spray treatment)
Format: in vivo
conditions: Spodoptera frugiperda, in Zea mays, foliar, read-out: effect in % (caterpillars killed)
property: pest or weed control at 100 g/ha

Data request: Field request: pest or weed control at 100 g/ha | item: Cc1cc(C#N)cc(C(=O)NC2CC2)c1NC(=O)c1cc(Cn2nnnc2C(F)(F)C(F)(F)F)nn1-c1ncccc1Cl [Example 445]
Data returned: ≥ 80%

Data request: Field request: pest or weed control at 100 g/ha | item: Cc1cc(Br)cc(C(=O)NC(C)C)c1NC(=O)c1cc(Cn2nnc(C(F)F)n2)nn1-c1ncccc1Cl [Example 299]
Data returned: ≥ 80%

Data request: Field request: pest or weed control at 100 g/ha | item: CNC(=O)c1cc(Br)cc(C)c1NC(=O)c1cc(Cn2nnc(C(F)(F)C(F)(F)F)n2)nn1-c1ncccc1Cl [Example 143]
Data returned: ≥ 80%

---

experiment.notes: log P determination by HPLC (EEC Directive 79/831 Annex V.A8)
Format: physicochemical
conditions: reversed-phase HPLC, Zorbax Eclipse C18 column, by HPLC according to EEC Directive 79/831 Annex V.A8; read-out: log P
property: chromatographic logP
Give only the figure.

Cc1cc(Br)cc(C(=O)NC(C)(C)C)c1NC(=O)c1cc(Cn2nnc(C(F)(F)F)n2)nn1-c1ncccc1C(F)(F)F 4.13
CCNC(=O)c1cc(Br)cc(C)c1NC(=O)c1cc(Cn2nnc(C(F)(F)F)n2)nn1-c1ncccc1C(F)(F)F 3.52
Cc1cc(Cl)cc(C(N)=O)c1NC(=O)c1cc(Cn2nnc(C(F)(F)F)n2)nn1-c1ncccc1Br 2.76
Cc1cc(Cl)cc(C(=O)NC2CC2)c1NC(=O)c1cc(Cn2nnc(C(F)(F)F)n2)nn1-c1ncccc1Br 3.25
CNC(=O)c1cc(C#N)cc(C)c1NC(=O)c1cc(Cn2nnc(C(F)(F)F)n2)nn1-c1ncccc1Br 3.58

Data request: Field request: chromatographic logP | item: Cc1cc(I)cc(C(=O)NCC2CC2)c1NC(=O)c1cc(Cn2nnc(C(F)(C(F)(F)F)C(F)(F)F)n2)nn1-c1ncccc1Cl
Data returned: 4.51

Data request: Field request: chromatographic logP | item: Cc1cc(C#N)cc(C(=O)NCC2CC2)c1NC(=O)c1cc(Cn2nnc(C(F)(C(F)(F)F)C(F)(F)F)n2)nn1-c1ncccc1Cl
Data returned: 3.84

---

System: larvae of the mustard beetle (Phaedon cochleariae)
experiment.notes: Phaedon test (PHAECO spray treatment)
conditions: Phaedon cochleariae, in Brassica rapa, foliar, read-out: effect in % (beetle larvae killed)
This listing pairs molecules with measured pest or weed control at 100 g/ha.

Here is how some molecules turned out for pest or weed control at 100 g/ha.
COCCNC(=O)c1cc(C#N)cc(C)c1NC(=O)c1cc(Cn2nnc(C(F)(F)F)n2)nn1-c1ccccc1Cl ≥ 80%
Cc1cc(C#N)cc(C(=O)NCC#N)c1NC(=O)c1cc(Cn2nnc(C(F)(C(F)(F)F)C(F)(F)F)n2)nn1-c1ncccc1Cl ≥ 80%

Data request: Field request: pest or weed control at 100 g/ha | item: CNC(=O)c1cc(C#N)cc(C)c1NC(=O)c1cc(Cn2nnc(C(F)(F)F)n2)nn1-c1ccccc1Br
Data returned: ≥ 80%

Data request: Field request: pest or weed control at 100 g/ha | item: CCNC(=O)c1cc(I)cc(C)c1NC(=O)c1cc(Cn2nnnc2C(F)(F)F)nn1-c1ncccc1C(F)(F)F
Data returned: ≥ 80%

---

experiment.notes: log P determination by HPLC (EEC Directive 79/831 Annex V.A8)
Assay type: physicochemical
conditions: log P
Rule: chromatographic logP under 3 gives condition not met, otherwise condition met.

compound	class.assignment
Cc1cc(C#N)cc(C(=O)NCC#N)c1NC(=O)c1cc(Cn2nnnc2C(F)(F)F)nn1-c1ncccc1Cl [Example 208]	condition not met
Cc1cc(F)cc(C(=O)NCC#N)c1NC(=O)c1cc(Cn2nnc(C(F)(F)F)n2)nn1-c1ncccc1Cl [Example 53]	condition not met
Cc1cc(Br)cc(C(=O)NC(C)(C)C)c1NC(=O)c1cc(Cn2nnc(C(F)(F)C(F)(F)F)n2)nn1-c1ncccc1Cl [Example 219]	condition met

Data request: Hello, I need to know if Cc1cc(C#N)cc(C(=O)NC2CCC2)c1NC(=O)c1cc(Cn2nnc(C(F)(F)C(F)(F)F)n2)nn1-c1ncccc1Cl [Example 139] has measured chromatographic logP not below 3. Thanks!
Data returned: condition met

---

System: larvae of the mustard beetle (Phaedon cochleariae)
experiment.notes: Phaedon test (PHAECO spray treatment)
conditions: Phaedon cochleariae, in Brassica rapa, foliar, read-out: effect in % (beetle larvae killed)
property: pest or weed control at 100 g/ha

compound	reported.result
Cc1cc(C#N)cc(C(=O)NCC(F)(F)F)c1NC(=O)c1cc(Cn2nnnc2C(F)(F)F)nn1-c1ccccc1Cl	≥ 80%
COCCNC(=O)c1cc(C#N)cc(C)c1NC(=O)c1cc(Cn2nnc(C(F)(F)F)n2)nn1-c1ncccc1Cl	≥ 80%
CC(NC(=O)c1cc(Cl)cc(Cl)c1NC(=O)c1cc(Cn2nnnc2C(F)F)nn1-c1ncccc1Cl)C1CC1 (stereo not shown)	≥ 80%

Data request: Field request: pest or weed control at 100 g/ha | item: Cc1cc(C#N)cc(C(=O)NC(C)(C)C)c1NC(=O)c1cc(Cn2nnnc2C(F)(F)F)nn1-c1ccccc1
Data returned: ≥ 80%

Data request: Field request: pest or weed control at 100 g/ha | item: O=C(NC1CCC1)c1cc(Cl)cc(Cl)c1NC(=O)c1cc(Cn2nnc(C(F)F)n2)nn1-c1ncccc1Cl
Data returned: ≥ 80%

Data request: Field request: pest or weed control at 100 g/ha | item: CNC(=O)c1cc(C#N)cc(C)c1NC(=O)c1cc(Cn2nnnc2C(F)(F)F)nn1-c1ncccc1Br
Data returned: ≥ 80%

Data request: Field request: pest or weed control at 100 g/ha | item: CNC(=O)c1cc(F)cc(C)c1NC(=O)c1cc(Cn2nnnc2C(F)(F)F)nn1-c1ncccc1Cl
Data returned: ≥ 80%

Reference source: patent US8324390B2
